- test-system: Alpha-2C adrenergic receptor (Homo sapiens)
- Sequence (P18825 whole entry): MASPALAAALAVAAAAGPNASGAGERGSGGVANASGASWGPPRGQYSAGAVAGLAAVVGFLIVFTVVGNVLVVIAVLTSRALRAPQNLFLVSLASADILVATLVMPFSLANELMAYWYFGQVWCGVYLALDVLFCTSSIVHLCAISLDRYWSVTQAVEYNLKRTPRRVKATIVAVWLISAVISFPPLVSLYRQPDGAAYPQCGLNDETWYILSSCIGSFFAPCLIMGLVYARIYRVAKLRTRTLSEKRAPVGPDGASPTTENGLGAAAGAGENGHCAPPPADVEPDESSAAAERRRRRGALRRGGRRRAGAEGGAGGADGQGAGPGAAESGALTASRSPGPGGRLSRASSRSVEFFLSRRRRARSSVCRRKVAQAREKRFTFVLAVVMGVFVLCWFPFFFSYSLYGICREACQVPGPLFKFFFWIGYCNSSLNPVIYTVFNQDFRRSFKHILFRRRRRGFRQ
measurement-kind: pKi
Convention used: pKi is expressed as -log10 of the molar concentration.

Qu. Observed pKi on Alpha-2C adrenergic receptor (Homo sapiens) for NS(=O)(=O)c1cc(NC(=O)C2(c3ccccc3Cl)CC2)ccc1Oc1cccc(Cl)c1 [BAY-207] , please.
Ans. 6.18

====

- test-system: hERG (KCNH2) (Homo sapiens, UniProt Q12809)
- Sequence (Q12809 whole entry): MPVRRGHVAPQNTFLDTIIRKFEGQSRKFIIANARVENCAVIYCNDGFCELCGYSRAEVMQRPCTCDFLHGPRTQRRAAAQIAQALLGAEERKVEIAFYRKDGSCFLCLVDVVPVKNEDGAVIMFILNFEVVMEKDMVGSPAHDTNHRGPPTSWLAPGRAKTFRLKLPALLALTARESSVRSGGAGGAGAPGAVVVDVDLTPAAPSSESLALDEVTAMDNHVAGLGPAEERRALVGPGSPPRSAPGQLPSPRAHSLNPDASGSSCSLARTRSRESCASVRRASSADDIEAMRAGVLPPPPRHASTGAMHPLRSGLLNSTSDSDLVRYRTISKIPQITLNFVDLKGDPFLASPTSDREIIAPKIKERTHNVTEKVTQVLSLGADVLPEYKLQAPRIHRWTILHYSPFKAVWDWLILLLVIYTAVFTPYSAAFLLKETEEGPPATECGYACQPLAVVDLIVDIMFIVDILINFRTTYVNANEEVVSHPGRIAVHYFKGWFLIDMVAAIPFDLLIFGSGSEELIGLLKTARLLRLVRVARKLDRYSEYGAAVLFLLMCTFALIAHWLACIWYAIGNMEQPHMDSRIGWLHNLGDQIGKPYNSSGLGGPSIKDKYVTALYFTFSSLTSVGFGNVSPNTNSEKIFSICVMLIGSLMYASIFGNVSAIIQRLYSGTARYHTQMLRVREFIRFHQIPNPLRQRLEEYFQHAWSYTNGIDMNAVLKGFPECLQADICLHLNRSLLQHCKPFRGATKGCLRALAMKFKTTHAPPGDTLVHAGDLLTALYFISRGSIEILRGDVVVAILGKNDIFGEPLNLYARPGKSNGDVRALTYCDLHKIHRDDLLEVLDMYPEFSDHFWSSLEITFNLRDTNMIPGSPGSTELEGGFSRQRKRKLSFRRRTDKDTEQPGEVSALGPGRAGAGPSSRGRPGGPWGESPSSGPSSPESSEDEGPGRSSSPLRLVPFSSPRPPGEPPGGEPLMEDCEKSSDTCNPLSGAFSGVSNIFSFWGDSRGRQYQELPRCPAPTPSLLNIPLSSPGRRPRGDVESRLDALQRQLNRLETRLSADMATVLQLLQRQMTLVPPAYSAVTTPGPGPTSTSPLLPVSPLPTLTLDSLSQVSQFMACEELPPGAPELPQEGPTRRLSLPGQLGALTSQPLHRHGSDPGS
- measurement-protocol: Inhibition of Potassium Channel hERG at 10 µM in the Eurofins-Panlabs radioligand binding assay (Eurofins_assay_265900)
- Design: ligand concentration 1.5 nM, non-specific ligand with concentration Astemizole, incubation time 60 min, incubation temperature 25 °C
- experimental-parameters: HEK-293 cells that express recombinant human hERG, probe [3H] Astemizole, 1.5 nM, compound concentration 10 uM
measurement-kind: inhibition at 60 min, 10 µM

Qu. Returns the measured inhibition at 60 min, 10 µM for the input compound. Input: `NS(=O)(=O)c1cc(NC(=O)Cc2ccccc2)ccc1Oc1cccc(Cl)c1`
Ans. 8% (not active)

====

- test-system: 5-hydroxytryptamine receptor 2C (Homo sapiens)
- Sequence (P28335 whole entry): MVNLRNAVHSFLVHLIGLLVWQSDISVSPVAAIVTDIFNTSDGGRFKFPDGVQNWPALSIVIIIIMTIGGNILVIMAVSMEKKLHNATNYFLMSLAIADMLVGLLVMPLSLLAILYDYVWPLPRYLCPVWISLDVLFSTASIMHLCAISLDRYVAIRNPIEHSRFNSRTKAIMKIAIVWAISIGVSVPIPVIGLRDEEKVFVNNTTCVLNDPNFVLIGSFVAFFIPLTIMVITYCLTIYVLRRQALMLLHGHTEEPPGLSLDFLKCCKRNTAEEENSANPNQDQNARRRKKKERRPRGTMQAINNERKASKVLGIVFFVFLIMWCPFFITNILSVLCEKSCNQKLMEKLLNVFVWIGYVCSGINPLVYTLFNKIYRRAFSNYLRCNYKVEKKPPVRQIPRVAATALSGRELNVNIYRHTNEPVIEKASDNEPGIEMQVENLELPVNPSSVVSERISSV
- measurement-protocol: GPCRScan assay: inhibition of 5-HT2C
- Design: radioligand conc. used [nm] 1.0 – 2.5, parental cells HEK T
- experimental-parameters: read-out: Ki
measurement-kind: pKi
Convention used: pKi is expressed as -log10 of the molar concentration.

Qu. Returns the measured pKi for the input compound. Input: `NS(=O)(=O)c1cc(NC(=O)Cc2ccccc2)ccc1Oc1cccc(Cl)c1`
Ans. 5.19

====

- test-system: L-type calcium channel, benzothiazepine site (Cav1.2 alpha-1C) (Homo sapiens)
- Sequence (Q13936 whole entry): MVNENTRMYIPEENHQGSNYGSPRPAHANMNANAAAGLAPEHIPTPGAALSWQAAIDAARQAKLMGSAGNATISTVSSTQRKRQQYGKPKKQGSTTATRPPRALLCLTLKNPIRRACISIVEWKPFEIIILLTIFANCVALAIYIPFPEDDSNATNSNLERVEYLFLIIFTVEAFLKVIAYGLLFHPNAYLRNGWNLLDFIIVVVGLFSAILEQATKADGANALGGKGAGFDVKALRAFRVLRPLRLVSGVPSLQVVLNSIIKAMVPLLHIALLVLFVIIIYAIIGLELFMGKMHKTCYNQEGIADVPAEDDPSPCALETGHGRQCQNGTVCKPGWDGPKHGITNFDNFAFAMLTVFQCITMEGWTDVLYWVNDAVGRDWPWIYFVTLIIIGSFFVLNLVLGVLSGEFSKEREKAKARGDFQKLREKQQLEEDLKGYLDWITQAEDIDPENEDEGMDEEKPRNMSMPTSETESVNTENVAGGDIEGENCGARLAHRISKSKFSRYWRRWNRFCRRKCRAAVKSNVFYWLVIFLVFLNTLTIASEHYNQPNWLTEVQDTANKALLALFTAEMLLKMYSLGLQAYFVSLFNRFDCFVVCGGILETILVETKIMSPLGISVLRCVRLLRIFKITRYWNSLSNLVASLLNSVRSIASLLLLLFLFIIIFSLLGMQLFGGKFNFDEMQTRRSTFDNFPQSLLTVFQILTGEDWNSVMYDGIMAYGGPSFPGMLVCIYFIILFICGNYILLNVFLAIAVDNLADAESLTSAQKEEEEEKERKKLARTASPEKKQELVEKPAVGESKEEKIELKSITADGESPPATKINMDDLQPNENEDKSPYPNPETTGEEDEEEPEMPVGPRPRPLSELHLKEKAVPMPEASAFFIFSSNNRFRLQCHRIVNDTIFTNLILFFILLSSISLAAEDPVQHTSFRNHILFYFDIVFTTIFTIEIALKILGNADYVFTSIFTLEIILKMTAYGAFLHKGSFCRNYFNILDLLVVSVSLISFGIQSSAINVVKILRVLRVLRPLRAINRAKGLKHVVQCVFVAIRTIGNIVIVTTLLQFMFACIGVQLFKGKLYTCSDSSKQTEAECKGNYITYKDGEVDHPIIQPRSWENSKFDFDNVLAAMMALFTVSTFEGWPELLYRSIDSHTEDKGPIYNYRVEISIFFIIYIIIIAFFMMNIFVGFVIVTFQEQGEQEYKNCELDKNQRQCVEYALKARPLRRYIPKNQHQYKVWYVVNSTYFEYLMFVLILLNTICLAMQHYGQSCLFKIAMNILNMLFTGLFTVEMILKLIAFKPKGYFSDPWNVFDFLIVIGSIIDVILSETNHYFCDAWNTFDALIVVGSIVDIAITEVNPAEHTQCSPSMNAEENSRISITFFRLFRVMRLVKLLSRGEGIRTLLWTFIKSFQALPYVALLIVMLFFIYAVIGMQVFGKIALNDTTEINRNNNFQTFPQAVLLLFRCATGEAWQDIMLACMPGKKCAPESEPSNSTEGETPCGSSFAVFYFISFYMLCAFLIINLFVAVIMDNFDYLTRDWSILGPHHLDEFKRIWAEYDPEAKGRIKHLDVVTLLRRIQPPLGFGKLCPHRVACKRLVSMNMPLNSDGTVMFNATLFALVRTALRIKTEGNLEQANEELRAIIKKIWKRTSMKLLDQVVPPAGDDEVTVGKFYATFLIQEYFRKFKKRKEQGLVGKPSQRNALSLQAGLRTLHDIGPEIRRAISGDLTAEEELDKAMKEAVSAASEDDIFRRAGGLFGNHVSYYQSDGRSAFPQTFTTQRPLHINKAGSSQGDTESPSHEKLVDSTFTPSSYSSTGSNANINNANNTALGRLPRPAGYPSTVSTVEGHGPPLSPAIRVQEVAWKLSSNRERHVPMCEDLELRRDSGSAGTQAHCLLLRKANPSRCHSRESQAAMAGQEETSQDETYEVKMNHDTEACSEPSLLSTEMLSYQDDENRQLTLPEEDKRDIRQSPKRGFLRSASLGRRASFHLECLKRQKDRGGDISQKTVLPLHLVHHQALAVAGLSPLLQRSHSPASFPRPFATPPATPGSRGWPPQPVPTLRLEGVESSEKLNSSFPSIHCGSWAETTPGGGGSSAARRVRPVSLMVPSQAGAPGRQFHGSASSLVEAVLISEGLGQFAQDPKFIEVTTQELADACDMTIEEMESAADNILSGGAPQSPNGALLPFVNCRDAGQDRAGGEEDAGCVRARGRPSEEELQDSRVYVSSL
- measurement-protocol: Inhibition of Calcium Channel L-Type, Benzothiazepine at 10 µM in the Eurofins-Panlabs radioligand binding assay (Eurofins_assay_214510)
- Design: ligand concentration 2 nM, non-specific ligand with concentration 10 µM Diltiazem, incubation time 3h, incubation temperature 4 °C
- experimental-parameters: male, Wistar, rat, rat whole brain preparation, probe [3H] Diltiazem, 2 nM; compound concentration 10 uM; target entry is the homologue from another species
measurement-kind: inhibition at 3 h, 10 µM

Qu. Returns the measured inhibition at 3 h, 10 µM for the input compound. Input: `NS(=O)(=O)c1cc(NC(=O)Cc2ccccc2)ccc1Oc1cccc(Cl)c1`
Ans. 17% (not active)
